I'd be grateful if you could share measured log10 of IC50 for these entries.
Target: S. aureus RNA polymerase core enzyme + S. aureus σA (Staphylococcus aureus (strain NCTC 8325 / PS 47), UniProt P47768+Q2G0N5)
Experiment: Fluorescence-detected assay of inhibition of Staphylococcus aureus RNA polymerase
Conditions: T4 N25 promoter DNA, RiboGreen fluorescence, read-out: RNAP-inhibitory activity S. aureus RNAP IC50
Procedure: Fluorescence-detected RNA polymerase assays with E. coli RNA polymerase were performed by a modification of the procedure of Kuhlman et al., 2004 [Kuhlman, P., Duff, H. & Galant, A. (2004) A fluorescence-based assay for multisubunit DNA-dependent RNA polymerases. Anal. Biochem. 324, 183-190]. […]
# log10 transformed; quantity=IC50; unit=µM

{"COMPOUND": "O=C(NCCc1ccc(Oc2ccc(F)cc2)cc1)c1c(O)c(Cl)c(O)c(Cl)c1O [Compound 0MTK231]", "log10 of IC50": 1.49}

// batch mode: one log10 of IC50 value per listed entry
1. O=C(NCCc1ccc(Oc2ccc(F)cc2)cc1)c1c(O)cc(O)cc1O [Compound 0MTK156]
2. O=C(NCCc1ccc(Oc2cc(Cl)cc(Cl)c2)cc1)c1c(O)c(Cl)c(O)c(Cl)c1O [Compound 0MTK238]
3. O=C(NCc1ccc(Oc2ccc(F)cc2)cc1)c1c(O)cc(O)cc1O [Compound 0MTK154]
4. O=C(NCCc1ccc(Oc2ccc(F)cc2)cc1)c1c(O)cc(O)c(Cl)c1O [Compound 0MTK240]
5. O=C(NCCc1ccc(Cl)cc1)c1c(O)cc(O)cc1O [Compound 0MTK127]
6. O=C(NCCc1ccc(C(F)(F)F)cc1)c1c(O)cc(O)c(Cl)c1O [Compound 0MTK223]
7. O=C(NCCc1ccc(Oc2cccnc2)cc1)c1c(O)cc(O)cc1O [Compound 0MTK264]
8. COc1cc(Oc2ccc(F)cc2)ccc1CNC(=O)c1c(O)cc(O)cc1O [Compound 0MTK178]

Return:
1: 0.74; 2: 0.48; 3: 0.54; 4: 1.18; 5: 0.18; 6: 1.00; 7: 0.58; 8: 1.26

Give measured log10 of IC50 for every item shown.
1. O=C(NCCCc1ccc(Cl)cc1)c1c(O)cc(O)cc1O [Compound 0MTK204]
2. O=C(NC1CC1)c1cccc(Oc2ccc(CCNC(=O)c3c(O)cc(O)cc3O)cc2)c1 [Compound 0MTK268]
3. O=C(NCCc1ccc(Oc2ccccc2)cc1)c1c(O)cc(O)cc1O [Compound 0MTK148]
4. O=C(NCCc1ccc(C(F)(F)F)cc1C(F)(F)F)c1c(O)cc(O)cc1O [Compound 0MTK208]
5. O=C(NCc1ccc(Cl)cc1)c1c(O)cc(O)cc1O [Compound 0MTK107]
6. O=C(NCCc1ccc(Oc2ccc(-c3ccncc3)cc2)cc1)c1c(O)cc(O)cc1O [Compound 0MTK266]
7. O=C(NCCc1ccc(Oc2ccc(-c3cccnc3)cc2)cc1)c1c(O)cc(O)cc1O [Compound 0MTK267]

Return:
[0.90, 0.46, 0.59, 0.70, 0.30, 0.71, 0.23]

---

target: S. aureus RNA polymerase core enzyme + S. aureus σA (Staphylococcus aureus (strain NCTC 8325 / PS 47), UniProt P47768+Q2G0N5); assay: Fluorescence-detected assay of inhibition of Staphylococcus aureus RNA polymerase; conditions: T4 N25 promoter DNA, RiboGreen fluorescence, read-out: RNAP-inhibitory activity S. aureus RNAP IC50
I'd be grateful if you could share measured pIC50 for these entries.
Numbers only, as −log10 of the molar value.

{"COMPOUND": "O=C(NCCc1ccc(Oc2cccc(-c3ccncc3)c2)cc1)c1c(O)cc(O)cc1O [Compound 0MTK269]", "pIC50": 5.52}
{"COMPOUND": "O=C(NCc1ccc(Oc2ccc(F)cc2)c(F)c1)c1c(O)cc(O)cc1O [Compound 0MTK175]", "pIC50": 5.15}
{"COMPOUND": "Cc1ccc(Oc2ccc(CCNC(=O)c3c(O)cc(O)cc3O)cc2)cc1 [Compound 0MTK257]", "pIC50": 4.96}
{"COMPOUND": "O=C(NCCc1ccc(Oc2cc(Cl)cc(Cl)c2)cc1)c1c(O)cc(O)cc1O [Compound 0MTK180]", "pIC50": 5.18}
{"COMPOUND": "O=C(NCCc1ccc(Oc2cncnc2)cc1)c1c(O)cc(O)cc1O [Compound 0MTK262]", "pIC50": 5.13}

Next compound, pIC50 to be filled in.
// pIC50 lookup, compound = O=C(NCCc1ccc(Oc2ccncc2)cc1)c1c(O)cc(O)cc1O [Compound 0MTK265] , result: 5.19
